system: HeLa; assay: Formazan production in HRV-14 virus infected cells; type: functional, cell-based; settings: Homo sapiens
Checkbox rule: EC50 lower than 3 µM = yes (1); EC50 not lower than 3 µM = no (0).

INSERT INTO measurements (compound, experimental_system, label_value) VALUES
  ('CC(=O)N1CC/C(=C\[C@H](CCC(N)=O)NC(=O)[C@H](Cc2ccccc2)NC(=O)[C@H](CC(C)C)NC(=O)OCc2ccccc2)C1=O', 'HeLa', 'yes (1)'),
  ('CC(C)C[C@H](NC(=O)OCc1ccccc1)C(=O)N[C@@H](Cc1ccccc1)C(=O)N[C@H](/C=C/C(=O)N1CCC(O)C1)CCC(N)=O (stereo partly specified)', 'HeLa', 'no (0)'),
  ('COC(=O)/C=C\[C@H](CCC(N)=O)NC(=O)[C@H](Cc1ccccc1)NC(=O)[C@H](CC(C)C)NC(=O)OCc1ccccc1', 'HeLa', 'no (0)'),
  ('CC(C)C[C@H](NC(=O)OCc1ccccc1)C(=O)N[C@@H](Cc1ccccc1)C(=O)N[C@H](/C=C/C(=O)N1CCc2cc(Cl)ccc21)CCC(N)=O', 'HeLa', 'no (0)'),
  ('CC(C)C[C@H](NC(=O)OCc1ccccc1)C(=O)N[C@@H](Cc1ccccc1)C(=O)N[C@H](/C=C/S(=O)(=O)c1ccccc1)CCC(N)=O', 'HeLa', 'no (0)'),
  ('CC(C)C[C@H](NC(=O)OCc1ccccc1)C(=O)N[C@@H](Cc1ccccc1)C(=O)N[C@H](/C=C/C(=O)N1CCCCO1)CCC(N)=O', 'HeLa', 'no (0)');
